Biological target: T1, hFc-tagged human 4-1BB extracellular domain protein (4-1BB-hFc) (human, UniProt Q07011 24-186, limits assumed)
T1 construct: also called immunogen A; 4-1BB^ECD-hFc; not shown: human IgG Fc fragment (hFc) of the pCpC vector
Test: ELISA, coated human 4-1BB-hFc; Ab 0.0001 ug/ml
binders and their reported OD450 nm
Numbers only here, please. The scale is OD450 nm.

* 11H10C9 (antibody, V domains shown) VH: QVQLVESGGGVVQPGRSLRLSCAASGFTFSSYAMHWVRQAPGKGLEWVAIIWYDGSNQYYADSVKGRFTISRDNSMNTLYLQMNSLRAEDTAVYYCARVEQWLVSYFDFWGQGTLVTVSS VL: EIVMTQSPATLSVSPGERATLSCRASQSVSSNLAWYQQKPGQVPRLLIYGASTRATGIPARFSGSGSGTEFTLTISSLQSEDFAVYYCQQYNNWPTFGGGTKVEIK | 0.15

Which OD450 nm value belongs to 172E3E3 (antibody, V domains shown) VH: QVQLQESGPGLVKPSGTLSLTCAVSGGSISSSNWWSWVRQPPGKGLEWIGEIYHSGSTNYNPSLKSRVTISVDKSKNQLSLNLSSVTAADTAVYYCARQGGVAGTLYWYFDLWGRGTLVTVSS VL: DIVMTQSPLSLPVTPGEPASISCRSSQGLLHSNGYNYLDWYLQKPGQSPQLLIYLGSNRASGVPDRFIGSGSGTDFTLKIRRVEAEDVGVYYCMQVLQTPWTFGQGTKVEIK ?
0.14

Attribution: patent US20200347144A1
